system: HEK-293T; test: Multiplex assay against HEK293T; format: toxicity, cell-based; settings: human, 12 h, 10 µM, compound concentration 10 uM, replicate 2
Test Readout: Population Hoechst High Intensity Objects (%)
Give bare numbers, in %.

Parameters: items (list). Returns: Population Hoechst High Intensity Objects (%) for each item.
1. Cc1cccc(NC(=O)CN2CCC(c3ccccn3)CC2)c1.Cl.Cl
2. CC(C)c1noc(N2CCC(COc3ccc(-c4ccc(S(C)(=O)=O)cc4)nc3)CC2)n1
3. CN(C)C(=O)Cn1cc(-c2ccc(-c3cncc4ccccc34)cc2)cn1
4. Cc1sc2c(c1C)C(c1ccc(Cl)cc1)=N[C@@H](CC(=O)NCCCCCCCCNC(=O)COc1cccc3c1C(=O)N(C1CCC(=O)NC1=O)C3=O)c1nnc(C)n1-2 (some centres not stated)
5. COc1ccccc1N1CCN(C[C@@H](C(=O)NC(C)(C)C)c2ccccc2)CC1.Cl.Cl
6. CCc1cc2cc(NS(=O)(=O)c3ccc(C#N)cc3)ccc2n(CC)c1=O
7. CC(C)(C)c1cc(NC(=O)Nc2ccc(-c3cn4c(n3)sc3cc(OCCN5CCOCC5)ccc34)cc2)no1
8. CCCCC(=O)N(Cc1ccc(-c2ccccc2-c2nnn[nH]2)cc1)[C@H](C(=O)O)C(C)C

14
16
19
37
16
16
12
10

Quick request: Population Hoechst High Intensity Objects (%) for each listed item, please.
1. CC[C@@H](C)Nc1nc(C)nc2c(-c3ccc(OC)nc3C)c(C)nn12
2. COc1cccc2c1c(NS(=O)(=O)c1ccc(Cl)s1)nn2Cc1cccc(CNC(=O)C(C)(C)O)c1
3. Cc1noc(-c2ccc(-c3ccc(CC(=O)O)cc3)cc2)c1NC(=O)O[C@H](C)c1ccccc1Cl
4. N#Cc1c(Oc2cccc(OS(=O)(=O)CCCC(F)(F)F)c2)cccc1C(F)(F)F

1: 11; 2: 11; 3: 14; 4: 40

====

tested on: U2OS; assay: Multiplex assay against U2OS; assay type: toxicity, cell-based; settings: human, 12 h, 1 µM, compound concentration 1 uM, replicate 1
Test Readout: Population Healthy Nuclei (%)
One number for each entry, in %.

CC[C@@H](C)Nc1nc(C)nc2c(-c3ccc(OC)nc3C)c(C)nn12 [PEXACERFONT]	66
COc1ccccc1N1CCN(C[C@@H](C(=O)NC(C)(C)C)c2ccccc2)CC1.Cl.Cl	65
Cl.NCCc1ccc(O)c(O)c1 [DOPAMINE HYDROCHLORIDE]	67
N#Cc1c(Oc2cccc(OS(=O)(=O)CCCC(F)(F)F)c2)cccc1C(F)(F)F	61
CCCCC(=O)N(Cc1ccc(-c2ccccc2-c2nnn[nH]2)cc1)[C@H](C(=O)O)C(C)C	63

Hi there! I need Population Healthy Nuclei (%) for each item below, if you can.
1. C[C@H](N)COC(=O)[C@@H](CCCCN)NC(=O)Cc1c(-c2ccc3ccccc3c2)[nH]c2c1ccc1ccccc12
2. CC(C)c1noc(N2CCC(COc3ccc(-c4ccc(S(C)(=O)=O)cc4)nc3)CC2)n1 [GSK-1292263]
3. CCCOc1ccc2[nH]cc(C3=CCNCC3)c2n1.Cl

1. 66
2. 62
3. 58

For every record below, what is its Population Healthy Nuclei (%)?
1. CN1CCN(c2cc(-c3ccccc3)nc(N)n2)CC1
2. COc1cccc2c1c(NS(=O)(=O)c1ccc(Cl)s1)nn2Cc1cccc(CNC(=O)C(C)(C)O)c1
3. O=C1[C@H](Cc2ccc(O)cc2)N2C(=O)CCN(C(=O)NCc3ccccc3)[C@H]2CN1Cc1cccc2ccccc12
4. CCCCC1=NC2(CCCC2)C(=O)N1Cc1ccc(-c2ccccc2-c2nnn[nH]2)cc1 [IRBESARTAN]
5. CN(C)C(=O)Cn1cc(-c2ccc(-c3cncc4ccccc34)cc2)cn1
6. Cc1sc2c(c1C)C(c1ccc(Cl)cc1)=N[C@@H](CC(=O)NCCCCCCCCNC(=O)COc1cccc3c1C(=O)N(C1CCC(=O)NC1=O)C3=O)c1nnc(C)n1-2 (some centres undefined)

1: 61; 2: 67; 3: 74; 4: 66; 5: 68; 6: 49

Hey, quick one: what's Population Healthy Nuclei (%) for each of these?
1. CC(=O)Nc1cccc2c1c(Sc1ccc(Cl)cc1)c(C)n2CC(=O)O [AZD1981]
2. Cc1cccc(NC(=O)CN2CCC(c3ccccn3)CC2)c1.Cl.Cl
3. COC[C@@H](c1ccc(C(F)(F)F)cc1)N1CCN(C2(C)CCN(C(=O)c3c(C)ncnc3C)CC2)C[C@@H]1C.O=C(O)/C=C\C(=O)O [VICRIVIROC MALEATE]
4. O=C(NCCN1CCC(n2c(=O)[nH]c3cc(Cl)ccc32)CC1)c1ccc(F)cc1 [HALOPEMIDE]
5. Br.CS(=O)(=O)Nc1c(O)ccc2c1CCCC2C1=NCCN1 (centres undefined)

68
67
54
65
75
